# experimental-target: BRD4 (Homo sapiens)
# Construct: This panel comprised ten highly ligandable kinases and bromodomains; made in house
# measurement-protocol: Liability panel screening by DSF: BRD4
# Type: binding
# test-context: DSF, 20 µM, n=2; read-out: Mean ΔTM BRD4
Simple rule here: ΔTm at 20 µM less than -2 °C is T, otherwise F.

Please indicate whether the reported ΔTm at 20 µM of COc1cccc([C@@H](Oc2ccc3c(cnn3-c3ccc(F)cc3)c2)[C@H](C)NC(=O)C(F)(F)F)c1 is strictly below -2 °C.
F

Please indicate whether the reported ΔTm at 20 µM of COC(=O)[C@@H]1CC2=CC(=O)CC[C@]2(C)[C@@]23O[C@@H]2C[C@@]2(C)[C@@H](CC[C@@]24CCC(=O)O4)[C@H]13 is strictly below -2 °C.
F

Please indicate whether the reported ΔTm at 20 µM of CC(=O)OCC(=O)[C@@]1(O)CC[C@H]2[C@@H]3CCC4=CC(=O)CC[C@]4(C)[C@@]3(F)[C@@H](O)C[C@@]21C [Fludrocortisone acetate] is strictly below -2 °C.
F

Please indicate whether the reported ΔTm at 20 µM of CC/C(=C(/CC)c1ccc(O)cc1)c1ccc(O)cc1 is strictly below -2 °C.
T

Please indicate whether the reported ΔTm at 20 µM of N#Cc1ccc([C@H]2CCCC[C@H]2O)cc1C(F)(F)F is strictly below -2 °C.
F

Please indicate whether the reported ΔTm at 20 µM of CCN(CC)c1ccc(/C=N/NC(=O)c2ccc(O)cc2)cc1 is strictly below -2 °C.
F

Please indicate whether the reported ΔTm at 20 µM of C[C@@H]1Cc2c([nH]c3ccccc23)[C@@H](c2c(F)cc(/C=C/C(=O)O)cc2F)N1CC(C)(C)F is strictly below -2 °C.
F

Please indicate whether the reported ΔTm at 20 µM of CCCC1O[C@@H]2C[C@H]3[C@@H]4CCC5=CC(=O)C=C[C@]5(C)[C@H]4[C@@H](O)C[C@]3(C)[C@]2(C(=O)CO)O1 (stereo partly shown) [Budesonide] is strictly below -2 °C.
F

Please indicate whether the reported ΔTm at 20 µM of C[C@]12CCC(=O)C=C1CC[C@@H]1[C@@H]2[C@@H](O)C[C@]2(C=O)[C@@H](C(=O)CO)CC[C@@H]12 is strictly below -2 °C.
F

Please indicate whether the reported ΔTm at 20 µM of COc1ccc2c(c1)OC(C)(C)C(c1ccccc1)C2c1ccc(OCCN2CCCC2)cc1 (stereo not shown) is strictly below -2 °C.
T

Please indicate whether the reported ΔTm at 20 µM of Cc1ccc2c(NC[C@](O)(CC(C)(C)c3cc(F)cc4c3OCC4)C(F)(F)F)cccc2n1 is strictly below -2 °C.
F

Please indicate whether the reported ΔTm at 20 µM of COc1cc(/C=C(\C#N)C(=O)Nc2nnc(C(F)(F)F)s2)ccc1OCc1ccc(C(F)(F)F)cc1C(F)(F)F is strictly below -2 °C.
T

Please indicate whether the reported ΔTm at 20 µM of CN(C)CCOc1ccc(/C(=C(/CCCO)c2ccccc2)c2ccc(O)cc2)cc1 is strictly below -2 °C.
T

Please indicate whether the reported ΔTm at 20 µM of N#CC(Cc1ccc(O)cc1)c1ccc(O)cc1 (stereo not shown) is strictly below -2 °C.
F

Please indicate whether the reported ΔTm at 20 µM of Cc1c(N2C(=O)C3C(O)CCN3C2=O)ccc(C#N)c1Cl (stereo not shown) is strictly below -2 °C.
T

Please indicate whether the reported ΔTm at 20 µM of Oc1ccc(-c2nc3cc(O)cc(Br)c3o2)cc1 is strictly below -2 °C.
F

Please indicate whether the reported ΔTm at 20 µM of C#C[C@]1(O)CC[C@H]2[C@@H]3CCc4cc(O)ccc4[C@H]3CC[C@@]21C is strictly below -2 °C.
F

Please indicate whether the reported ΔTm at 20 µM of Cc1c(-c2ccc(O)cc2)n(Cc2ccc(OCCN3CCCCCC3)cc2)c2ccc(O)cc12 is strictly below -2 °C.
F

Please indicate whether the reported ΔTm at 20 µM of CC(=O)O[C@]1(C(C)=O)CC[C@H]2[C@@H]3C=C(Cl)C4=CC(=O)[C@@H]5C[C@@H]5[C@]4(C)[C@H]3CC[C@@]21C [Cyproterone acetate] is strictly below -2 °C.
F

Please indicate whether the reported ΔTm at 20 µM of CC(=O)O[C@]1(C(C)=O)CC[C@H]2[C@@H]3CCC4=CC(=O)CCC4=C3[C@@H](c3ccc(N(C)C)cc3)C[C@@]21C [Ulipristal acetate] is strictly below -2 °C.
T

Please indicate whether the reported ΔTm at 20 µM of C[C@H]1C[C@H]2[C@@H]3CCC4=CC(=O)C=C[C@]4(C)[C@@]3(Cl)[C@@H](O)C[C@]2(C)[C@@]1(O)C(=O)CO is strictly below -2 °C.
F

Please indicate whether the reported ΔTm at 20 µM of CC#C[C@]1(O)CC[C@H]2[C@@H]3CCC4=CC(=O)CCC4=C3[C@@H](c3ccc(N(C)C)cc3)C[C@@]21C is strictly below -2 °C.
T

Where do these numbers come from? They come from paper PMC11790914.
